test system: Pa16c cells; assay: Pa16c cell proliferation assay (resazurin); format: cell-based; details: Table 2, inhibition of cell proliferation
quantityMeasured: IC50

Look over these answered cases.
{"smi": "CNC(=O)c1cc(-c2nc(N[C@H](C)CO)cc(-c3cc(NC(=O)c4cc(C(F)(F)F)cnn4)ccc3C)n2)ccn1", "obsValue": "1 to 10 µM"}
{"smi": "Cc1cc(-c2cc(NC(=O)c3cc(C(F)(F)F)cnn3)ccc2C)cc(-c2ccnc(C(N)=O)c2)n1", "obsValue": "0.1 to 0.5 µM"}

Could I get IC50 for every one of these entries?
1. CNC(=O)c1cc(-c2cc(-c3cc(NC(=O)c4cc(C(F)(F)F)cnn4)ccc3C)cc(NC)n2)ccn1
2. CNC(=O)c1cc(-c2cc(-c3cc(NC(=O)c4cc(C(C)(F)F)cnn4)ccc3C)cc(N[C@H](C)CO)n2)ccn1
3. CNC(=O)c1cc(-c2cc(NCCO)nc(-c3cc(NC(=O)c4cc(C(F)(F)F)cnn4)ccc3C)n2)ccn1

Reply |
< 0.1 µM
0.1 to 0.5 µM
1 to 10 µM

Could I get IC50 for every one of these entries?
1. CNC(=O)c1cc(-c2cc(-c3cc(NC(=O)c4ccc(C(F)(F)F)nc4)ccc3C)cc(N[C@H](C)CO)n2)ccn1
2. CCc1ccc(NC(=O)c2cc(C(F)(F)F)cnn2)cc1-c1ccnc(-c2ccnc(C(=O)NC)c2)c1
3. CNC(=O)c1cc(-c2cc(-c3cc(NC(=O)c4cc(C#N)cnn4)ccc3C)cc(OCCO)n2)ccn1
4. CNC(=O)c1cc(-c2cc(-c3cc(NC(=O)c4cc(C(F)(F)F)cnn4)ccc3C)cc(C)n2)ccn1
5. CNC(=O)c1cc(-c2cc(N[C@H](C)CO)nc(-c3cc(NC(=O)c4cc(C(F)(F)F)cnn4)ccc3C)n2)ccn1

Reply |
1 to 10 µM
1 to 10 µM
< 0.1 µM
0.5 to 1 µM
1 to 10 µM

Could I get IC50 for every one of these entries?
1. CNC(=O)c1cc(-c2cc(-c3cc(NC(=O)c4cc(C(F)(F)F)cnn4)ccc3C)cc(NCCO)n2)ccn1
2. CNC(=O)c1cc(-c2cncc(-c3cc(NC(=O)c4cc(C#N)cnn4)ccc3C)c2)ccn1
3. CNC(=O)c1cc(-c2cc(-c3cc(NC(=O)c4cc(C(C)(F)F)cnn4)ccc3C)ccn2)ccn1
4. CNC(=O)c1cc(-c2cc(-c3cc(NC(=O)c4cc(C(C)(F)F)cnn4)ccc3C)cc(NCCO)n2)ccn1
5. CNC(=O)c1cc(-c2cc(-c3cc(NC(=O)c4cc(Cl)cnn4)ccc3C)ccn2)ccn1

Reply |
["< 0.1 µM", "1 to 10 µM", "0.1 to 0.5 µM", "0.1 to 0.5 µM", "1 to 10 µM"]

---

tested on: HCT-116 cells; assay: HCT-116 cell proliferation assay (resazurin); type: cell-based; conditions: Homo sapiens; Table 2, inhibition of cell proliferation; read-out: HCT-116
pIC50: −log10 of the molar value.
quantityMeasured: pIC50

Look over these answered cases.
{"smi": "CNC(=O)c1cc(-c2cncc(-c3cc(NC(=O)c4cc(C(C)(F)F)cnn4)ccc3C)c2)ccn1", "quantityMeasured": "pIC50", "obsValue": "6.00 to 6.30"}
{"smi": "CNC(=O)c1cc(-c2cc(N[C@H](C)CO)nc(-c3cc(NC(=O)c4cc(C(F)(F)F)cnn4)ccc3C)n2)ccn1", "quantityMeasured": "pIC50", "obsValue": "5.00 to 6.00"}

Could I get pIC50 for every one of these entries?
1. CNC(=O)c1cc(-c2cc(-c3cc(NC(=O)c4cc(C(F)(F)F)cnn4)ccc3C)cc(N)n2)ccn1
2. CNC(=O)c1cc(-c2cc(-c3cc(NC(=O)c4cncc(C(F)(F)F)c4)ccc3C)cc(C)n2)ccn1

Reply |
["6.30 to 7.00", "5.00 to 6.00"]
